molecular target: Cyno in house BCMA; experiment: ProteOn analysis of CA8 chimeric and humanised constructs, cyno in house BCMA; type: binding; conditions: Run 1, Cyno in house BCMA, 25° C., in s-1 (unit assumed)
Sequence (as listed by the source): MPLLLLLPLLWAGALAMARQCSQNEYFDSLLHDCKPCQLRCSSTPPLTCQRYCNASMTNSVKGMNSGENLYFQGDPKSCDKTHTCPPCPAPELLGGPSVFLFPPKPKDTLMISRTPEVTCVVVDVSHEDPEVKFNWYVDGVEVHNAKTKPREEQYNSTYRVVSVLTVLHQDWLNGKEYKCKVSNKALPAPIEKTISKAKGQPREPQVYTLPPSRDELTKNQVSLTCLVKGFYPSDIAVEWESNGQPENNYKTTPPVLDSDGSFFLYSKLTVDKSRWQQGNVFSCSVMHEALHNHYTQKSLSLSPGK
quantity: kd
Reply with the value as a number alone.

Worked set:
molecule	number
CA8 humanised J2M2: humanised CA8 anti-BCMA antibody, VH J2 (SEQ ID NO:15) + VL M2 (SEQ ID NO:35) (antibody, V domains shown, Humansed antibody sequence) VH: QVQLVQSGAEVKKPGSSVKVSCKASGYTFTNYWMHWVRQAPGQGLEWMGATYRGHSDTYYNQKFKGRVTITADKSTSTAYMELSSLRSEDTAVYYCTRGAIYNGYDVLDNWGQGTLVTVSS VL: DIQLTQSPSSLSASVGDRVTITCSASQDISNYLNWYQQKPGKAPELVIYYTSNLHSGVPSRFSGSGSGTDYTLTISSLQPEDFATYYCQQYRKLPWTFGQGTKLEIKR	3.17E−05
CA8 humanised J1M2: humanised CA8 anti-BCMA antibody, VH J1 (SEQ ID NO:13) + VL M2 (SEQ ID NO:35) (antibody, V domains shown, Humansed antibody sequence) VH: QVQLVQSGAEVKKPGSSVKVSCKASGYTFTNYWMHWVRQAPGQGLEWMGATYRGHSDTYYNQKFKGRVTITADKSTSTAYMELSSLRSEDTAVYYCARGAIYNGYDVLDNWGQGTLVTVSS VL: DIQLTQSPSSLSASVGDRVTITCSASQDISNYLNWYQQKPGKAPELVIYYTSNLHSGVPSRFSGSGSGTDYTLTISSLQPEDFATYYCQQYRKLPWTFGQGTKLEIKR	9.67E−05
CA8 humanised J1M1: humanised CA8 anti-BCMA antibody, VH J1 (SEQ ID NO:13) + VL M1 (SEQ ID NO:33) (antibody, V domains shown, Humansed antibody sequence) VH: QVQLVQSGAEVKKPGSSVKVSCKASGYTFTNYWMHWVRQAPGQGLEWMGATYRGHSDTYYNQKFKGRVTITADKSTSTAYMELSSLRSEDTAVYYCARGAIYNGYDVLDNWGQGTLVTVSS VL: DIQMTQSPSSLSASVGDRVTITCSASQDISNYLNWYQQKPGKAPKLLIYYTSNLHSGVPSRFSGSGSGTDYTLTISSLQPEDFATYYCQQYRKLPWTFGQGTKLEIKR	1.47E−04

kd reported for this molecule CA8 humanised J4M2: humanised CA8 anti-BCMA antibody, VH J4 (SEQ ID NO:19) + VL M2 (SEQ ID NO:35) (antibody, V domains shown, Humansed antibody sequence) VH: QVQLVQSGAEVKKPGSSVKVSCKGSGYTFTNYWMHWVRQAPGQGLEWIGATYRGHSDTYYNQKFKGRATLTADTSTSTAYMELSSLRSEDTAVYYCTRGAIYNGYDVLDNWGQGTLVTVSS VL: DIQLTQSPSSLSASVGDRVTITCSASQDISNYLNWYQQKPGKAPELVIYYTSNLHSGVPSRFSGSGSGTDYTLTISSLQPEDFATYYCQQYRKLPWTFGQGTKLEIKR : 6.15E−05

According to the records, this molecule CA8 humanised J4M1: humanised CA8 anti-BCMA antibody, VH J4 (SEQ ID NO:19) + VL M1 (SEQ ID NO:33) (antibody, V domains shown, Humansed antibody sequence) VH: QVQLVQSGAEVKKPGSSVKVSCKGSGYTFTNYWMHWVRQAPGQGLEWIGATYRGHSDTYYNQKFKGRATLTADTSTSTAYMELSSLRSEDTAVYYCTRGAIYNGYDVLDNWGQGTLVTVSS VL: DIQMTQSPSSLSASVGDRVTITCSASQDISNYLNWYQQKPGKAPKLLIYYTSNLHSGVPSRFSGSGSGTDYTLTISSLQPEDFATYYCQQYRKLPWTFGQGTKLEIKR displays kd of 7.10E−05
